- assay-procedure: chemical genetic growth profiling, strain panel (AID 1159580);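 further: tested at 20 µM; growth read once vehicle control cultures reached saturation at 30 °C; 1 = growth at the plate median or of vehicle wells; lower values mean less growth of the strain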
- assay-context: S. cerevisiae deletion strains, growth OD, locus YOR069W, strain VPS5, active compounds read low
Among all 5,500 compounds or so, about 2,000 (36%) were called active. Inconclusive results (about 18%) are left out. Some of the results follow.
reported-property: normalized growth
Enter a number only.

Any idea what its normalized growth is? The compound is `CNC(=O)Oc1cccc2c1OC(C)(C)C2`
1.01

====

- assay-procedure: chemical genetic growth profiling, strain panel (AID 1159580);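 further: tested at 20 µM; growth read once vehicle control cultures reached saturation at 30 °C; 1 = growth at the plate median or of vehicle wells; lower values mean less growth of the strain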
- assay-context: S. cerevisiae deletion strains, growth OD, locus YAR019C, strain CDC15
Among all 5,500 compounds or so, about 2,000 (36%) were called active. Roughly 18% stayed inconclusive and do not appear here. Rule as the data show it: active = normalized growth mostly below about 0.91 (no sharp cut-off); inconclusive = no clear call, values can overlap the other calls; inactive = mostly above about 0.92. The list shows a part of the results.
Your reply should match one of these outcome classes. active, inactive

| structure-smiles | group |
| --- | --- |
| Cc1csc2ncnc(N3CCN(C(=S)Nc4ccc(C(F)(F)F)cc4)CC3)c12 | inactive |

Outcome? `Cn1cc(Br)c(-c2cccc(NS(=O)(=O)c3ccc(Cl)cc3)c2)n1`
inactive

Outcome? `Cc1csc2c(N3CCN(C(=S)Nc4ccc(C(F)(F)F)cc4)CC3)ncnc12`
inactive

Outcome? `COC(=S)Nc1cc(Cl)cc(Cl)c1`
inactive

Outcome? `O=C1c2ccccc2C(=O)c2sccc21`
active

Origin of values: PubChem BioAssay AID1159580
